IC50 reference
# ASSAYED TARGET: Vasopressin V1b receptor (Homo sapiens, UniProt P47901)
# Sequence (P47901 whole entry): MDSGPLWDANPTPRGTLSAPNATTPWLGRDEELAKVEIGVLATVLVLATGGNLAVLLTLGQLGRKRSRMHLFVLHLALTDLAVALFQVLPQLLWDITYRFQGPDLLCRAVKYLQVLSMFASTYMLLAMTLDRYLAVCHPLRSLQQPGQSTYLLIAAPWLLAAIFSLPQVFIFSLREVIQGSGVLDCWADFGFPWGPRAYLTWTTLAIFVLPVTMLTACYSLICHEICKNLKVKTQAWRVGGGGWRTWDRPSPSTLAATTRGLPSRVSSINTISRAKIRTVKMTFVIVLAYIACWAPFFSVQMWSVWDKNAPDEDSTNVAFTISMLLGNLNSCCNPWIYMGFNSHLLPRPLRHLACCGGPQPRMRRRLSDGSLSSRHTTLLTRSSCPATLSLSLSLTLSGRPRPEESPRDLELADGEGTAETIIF
# METHOD: Displacement of [3H]AVP from human vasopresin3 receptor expressed in CHO cells
# Format: cell-based

SMILES TEXT: NCCCCCCOc1ccc2nc(-c3ccccc3)n(CC(=O)NCC3CC3)c(=O)c2c1
ASSAYED TARGET: Vasopressin V1b receptor (Homo sapiens, UniProt P47901)
IC50: > 100 µM
//
SMILES TEXT: O=C(CCc1ccc(O)cc1)NCCOc1ccc2nc(-c3ccccc3)n(CC(=O)NCC3CC3)c(=O)c2c1
ASSAYED TARGET: Vasopressin V1b receptor (Homo sapiens, UniProt P47901)
IC50: > 100 µM
//
SMILES TEXT: NCCCCOc1ccc2nc(-c3ccccc3)n(CC(=O)NCC3CC3)c(=O)c2c1
ASSAYED TARGET: Vasopressin V1b receptor (Homo sapiens, UniProt P47901)
IC50: > 30 µM
//
SMILES TEXT: NCCCCCOc1ccc2nc(-c3ccccc3)n(CC(=O)NCC3CC3)c(=O)c2c1
ASSAYED TARGET: Vasopressin V1b receptor (Homo sapiens, UniProt P47901)
IC50: > 30 µM
//
SMILES TEXT: O=C(Cn1c(-c2ccccc2)nc2ccc(O)cc2c1=O)NCC1CC1
ASSAYED TARGET: Vasopressin V1b receptor (Homo sapiens, UniProt P47901)
IC50: > 100 µM
